System: Bach1 mRNA
Experiment: Bach1 mRNA knockdown and potency in human bronchial epithelial cells (NHBE)
Assay type: cell-based
Settings: Bach1 mRNA knockdown, 48 hours post transfection, mean of 3 donors
MEASURED METRIC: pEC50
A value of pEC50 is the negative decimal logarithm of a concentration given in moles per litre.

29956-DC (sense GUCUGAGUGUCCGUGGUUATT; antisense UAACCACGGACACUCAGACUU; inverted abasic caps (B), 2'-modified nucleotides, further chemistry not given here) : 8.67

Tell me reported pEC50 for 29957-DC (sense GCAGUUACUUCCACUCAAGTT; antisense CUUGAGUGGAAGUAACUGCUU; inverted abasic end caps, TT overhangs, modified nucleotides, further chemistry not given here) , tested with Bach1 mRNA.
9.02
